- test-system: norepinephrine transporters (NET) (Macaca mulatta, UniProt Q9MYW8)
- Sequence (Q9MYW8 1-617): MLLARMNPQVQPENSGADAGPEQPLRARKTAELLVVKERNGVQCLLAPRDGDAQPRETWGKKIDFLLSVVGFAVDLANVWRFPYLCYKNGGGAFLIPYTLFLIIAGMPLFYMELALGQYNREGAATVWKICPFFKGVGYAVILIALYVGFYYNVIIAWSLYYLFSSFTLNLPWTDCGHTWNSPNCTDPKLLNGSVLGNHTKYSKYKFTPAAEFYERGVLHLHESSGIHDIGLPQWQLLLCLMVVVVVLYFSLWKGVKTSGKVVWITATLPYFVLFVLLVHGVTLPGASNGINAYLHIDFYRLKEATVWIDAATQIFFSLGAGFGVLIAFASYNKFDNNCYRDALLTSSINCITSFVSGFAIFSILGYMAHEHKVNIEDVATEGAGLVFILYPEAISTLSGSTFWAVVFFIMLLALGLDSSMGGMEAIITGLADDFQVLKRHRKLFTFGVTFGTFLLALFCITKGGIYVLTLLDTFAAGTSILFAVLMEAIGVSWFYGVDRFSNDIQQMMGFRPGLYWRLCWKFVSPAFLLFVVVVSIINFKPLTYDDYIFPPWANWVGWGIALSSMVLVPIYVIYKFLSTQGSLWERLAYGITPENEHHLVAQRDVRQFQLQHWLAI
- test-parameters: ATX IC50 using BPF, caudate as reference region, plasma concentration; rSE 16%
observable: IC50
Give me the value, and tack the unit on after it.

Exercise: Which IC50 is listed for CNCC[C@@H](Oc1ccccc1C)c1ccccc1 ?
Key: 74.4 nM

All figures here come from paper PMC3710586.
